EXPERIMENT SUMMARY: Cytotoxicity on NCTC-Clone 929 fibroblasts (resazurin)
Type: cell-based
TEST PARAMETERS: mouse

| COMPOUND | IC50 at 24 h |
| --- | --- |
| COc1ccc(-n2cc(CCC(=O)O[C@H]3CC[C@@]4(C)C(CC[C@]5(C)C4CC=C4[C@@H]6CC(C)(C)CC[C@]6(C(=O)O)CC[C@]45C)C3(C)C)nn2)cc1 (stereo partly drawn) [Compound 23] | > 256 µg/mL |
| CC(C)c1ccc2c(c1)CCC1[C@](C)(C(=O)OCc3cn(CSc4ccccc4)nn3)CCC[C@]21C (stereo partly drawn) [Compound 3] | > 256 µg/mL |
| Cc1ccc(S(=O)(=O)n2cc(CCCCC(=O)OC[C@]3(C)CCC[C@]4(C)c5ccc(C(C)C)cc5CCC34)nn2)cc1 (stereo partly drawn) [Compound 16] | 129 µg/mL |
| C#CCCC(=O)O[C@H]1CC[C@@]2(C)C(CC[C@]3(C)C2CC=C2[C@@H]4CC(C)(C)CC[C@]4(C(=O)OC)CC[C@]23C)C1(C)C (stereo partly drawn) [Compound 18] | > 256 µg/mL |
| CC(C)c1ccc2c(c1)CCC1[C@](C)(COC(=O)CCc3cn(CSc4ccccc4)nn3)CCC[C@]21C (stereo partly drawn) [Compound 9] | > 256 µg/mL |
| C#CCCCC(=O)O[C@H]1CC[C@@]2(C)C(CC[C@]3(C)C2CC=C2[C@@H]4CC(C)(C)CC[C@]4(C(=O)OC)CC[C@]23C)C1(C)C (stereo partly drawn) [Compound 20] | > 256 µg/mL |
